system: Mycobacterium kansasii; assay: Antimycobacterial activity against Mycobacterium kansasii 6509/96 clinical isolate after 21 days by micromethod; assay type: functional; settings: 6509/96, 504 h
For each record, check the reported MIC: if it is below 1 µM write 1, else write 0.

Answered examples (5):
Query: For this compound, is MIC lower than 1 µM? `O=[N+]([O-])c1cc(-c2nnc(S)o2)cc([N+](=O)[O-])c1`
Result: 0

Query: For this compound, is MIC lower than 1 µM? `CC(=O)Nc1cc(-c2nnc(SCc3ccc(Br)cc3)o2)cc([N+](=O)[O-])c1`
Result: 0

Query: For this compound, is MIC lower than 1 µM? NNC(=O)c1ccncc1 [ISONIAZID]
Result: 0

Query: For this compound, is MIC lower than 1 µM? `COc1ccc(CSc2nnc(-c3cc(NC(C)=O)cc([N+](=O)[O-])c3)o2)cc1`
Result: 0

Query: For this compound, is MIC lower than 1 µM? `CCCCCSc1nnc(-c2cc([N+](=O)[O-])cc([N+](=O)[O-])c2)o1`
Result: 1

New cases:
Query: For this compound, is MIC lower than 1 µM? `CC(=O)Oc1cc(-c2nnc(SCc3ccc(Cl)c(Cl)c3)o2)cc([N+](=O)[O-])c1`
Result: 0

Query: For this compound, is MIC lower than 1 µM? `O=[N+]([O-])c1cc(-c2nnc(SCc3cccc(Cl)c3)o2)cc([N+](=O)[O-])c1`
Result: 1

###

tested on: Mycobacterium kansasii; assay: Antimycobacterial activity against Mycobacterium kansasii 6509/96 clinical isolate after 21 days by micromethod; format: functional; conditions: 6509/96, 504 h
Attribute measured: MIC (µM)
Form entry: value (µM) — number only.

Examples with answers:
Query: # query: MIC of entry `CCCSc1nnc(-c2cc([N+](=O)[O-])cc([N+](=O)[O-])c2)o1`
Result: 4

Query: # query: MIC of entry `CSc1nnc(-c2cc([N+](=O)[O-])cc([N+](=O)[O-])c2)o1`
Result: 16

Query: # query: MIC of entry `O=[N+]([O-])c1cc(-n2nnnc2SCc2ccc(Cl)c(Cl)c2)cc([N+](=O)[O-])c1`
Result: 1

New cases:
Query: # query: MIC of entry `O=[N+]([O-])c1cc(-n2nnnc2SCc2ccccc2)cc([N+](=O)[O-])c1`
Result: 2

###

system: Mycobacterium tuberculosis; assay: Antimycobacterial activity against Mycobacterium tuberculosis CNCTC My 331/88 after 14 days by micromethod; type: functional; conditions: CNCTC My 331/88, 336 h
Attribute measured: log10(MIC) (log10 of the value in µM)
# log10 transformed; quantity=MIC; unit=µM

Examples with answers:
Query: # query: log10(MIC) of entry `CCCCCSc1nnc(-c2cc([N+](=O)[O-])cc([N+](=O)[O-])c2)o1`
Result: -1.52

Query: # query: log10(MIC) of entry `O=[N+]([O-])c1cc(-c2nnc(SCc3ccc(Cl)cc3)o2)cc(C(F)(F)F)c1`
Result: -0.30

Query: # query: log10(MIC) of entry `O=[N+]([O-])c1cc(-c2nnc(SCc3cccc(Cl)c3)o2)cc([N+](=O)[O-])c1`
Result: -1.52

Query: # query: log10(MIC) of entry `CC(=O)Oc1cc(-c2nnc(SCc3ccc(Cl)c(Cl)c3)o2)cc([N+](=O)[O-])c1`
Result: 3.00

New cases:
Query: # query: log10(MIC) of entry `O=[N+]([O-])c1cc(-c2nnc(SCc3ccc(Cl)c(Cl)c3)o2)cc([N+](=O)[O-])c1`
Result: -1.52

Query: # query: log10(MIC) of entry `O=[N+]([O-])c1cc(-c2nnc(SCc3ccc(Cl)cc3)o2)cc([N+](=O)[O-])c1`
Result: -1.52

Query: # query: log10(MIC) of entry `O=[N+]([O-])c1cc(-c2nnc(SCc3ccccc3)o2)cc(C(F)(F)F)c1`
Result: 0.00

Query: # query: log10(MIC) of entry `CSc1nnc(-c2cc([N+](=O)[O-])cc([N+](=O)[O-])c2)o1`
Result: 0.60

Query: # query: log10(MIC) of entry `O=[N+]([O-])c1cc(-c2nnc(SCc3ccccc3Cl)o2)cc([N+](=O)[O-])c1`
Result: -1.52

###

tested on: Mycobacterium tuberculosis; experiment: Antimycobacterial activity against Mycobacterium tuberculosis CNCTC My 331/88 after 14 days by micromethod; format: functional; conditions: CNCTC My 331/88, 336 h
Attribute measured: MIC (µM)
Form entry: value (µM) — number only.

Examples with answers:
Query: # query: MIC of entry `O=[N+]([O-])c1cc(-n2nnnc2SCc2ccc(Cl)c(Cl)c2)cc([N+](=O)[O-])c1`
Result: 0.25

Query: # query: MIC of entry `Nc1cc(-c2nnc(SCc3ccc([N+](=O)[O-])cc3)o2)cc([N+](=O)[O-])c1`
Result: 125

Query: # query: MIC of entry `Nc1cc(-c2nnc(SCc3ccc(Cl)cc3)o2)cc([N+](=O)[O-])c1`
Result: 250

Could you now consider this next molecule?
Query: # query: MIC of entry `COc1ccc(CSc2nnc(-c3cc(N)cc([N+](=O)[O-])c3)o2)cc1`
Result: 125

###

tested on: Enterococcus sp.; assay: Antibacterial activity against Enterococcus sp. HK14365/08 after 48 hrs by broth microdilution method; format: functional; conditions: HK14365/08, 48 h
Attribute measured: MIC

Examples with answers:
Query: # query: MIC of entry `O=[N+]([O-])c1cc(-c2nnc(SCc3ccc(Cl)c(Cl)c3)o2)cc([N+](=O)[O-])c1`
Result: > 125 µM

Query: # query: MIC of entry `O=[N+]([O-])c1cc(-c2nnc(SCc3ccccc3Cl)o2)cc([N+](=O)[O-])c1`
Result: > 500 µM

Query: # query: MIC of entry `O=[N+]([O-])c1cc(-c2nnc(SCc3ccc(Cl)cc3)o2)cc([N+](=O)[O-])c1`
Result: > 500 µM

New cases:
Query: # query: MIC of entry `COc1ccc(CSc2nnc(-c3cc([N+](=O)[O-])cc([N+](=O)[O-])c3)o2)cc1`
Result: > 500 µM

Query: # query: MIC of entry `O=[N+]([O-])c1cc(-c2nnc(SCc3ccc(Br)cc3)o2)cc([N+](=O)[O-])c1`
Result: > 125 µM

Query: # query: MIC of entry `O=[N+]([O-])c1cc(-n2nnnc2SCc2ccc(Cl)c(Cl)c2)cc([N+](=O)[O-])c1`
Result: > 500 µM

Query: # query: MIC of entry `O=[N+]([O-])c1cc(-n2nnnc2SCc2ccc(Cl)cc2)cc([N+](=O)[O-])c1`
Result: > 500 µM

###

tested on: Mycobacterium kansasii; assay: Antimycobacterial activity against Mycobacterium kansasii CNCTC My 235/80 after 14 days by micromethod; assay type: functional; conditions: CNCTC My 235/80, 336 h
Attribute measured: log10 MIC (log10 of the value in µM)
# log10 transformed; quantity=MIC; unit=µM

Query: # query: log10 MIC of entry `O=[N+]([O-])c1cc(-c2nnc(SCc3ccccc3Cl)o2)cc([N+](=O)[O-])c1`
Result: -0.90

Query: # query: log10 MIC of entry `CCCCCSc1nnc(-c2cc([N+](=O)[O-])cc([N+](=O)[O-])c2)o1`
Result: -1.52

Query: # query: log10 MIC of entry `O=[N+]([O-])c1cc(-c2nnc(SCc3ccc(Cl)cc3)o2)cc([N+](=O)[O-])c1`
Result: -1.22

Query: # query: log10 MIC of entry `O=[N+]([O-])c1cc(-c2nnc(SCc3ccccc3)o2)cc(C(F)(F)F)c1`
Result: 0.60

Query: # query: log10 MIC of entry `O=[N+]([O-])c1cc(-c2nnc(SCc3ccc(Cl)cc3Cl)o2)cc([N+](=O)[O-])c1`
Result: -1.22

New cases:
Query: # query: log10 MIC of entry `O=[N+]([O-])c1cc(-c2nnc(SCc3ccc(Br)cc3)o2)cc([N+](=O)[O-])c1`
Result: -1.52

Query: # query: log10 MIC of entry `O=[N+]([O-])c1cc(-n2nnnc2SCc2ccccc2)cc([N+](=O)[O-])c1`
Result: 0.30

Query: # query: log10 MIC of entry `COc1ccc(CSc2nnc(-c3cc(N)cc([N+](=O)[O-])c3)o2)cc1`
Result: 2.40

###

system: Staphylococcus aureus; assay: Antibacterial activity against Staphylococcus aureus ATCC 6538 after 24 hrs by broth microdilution method; format: functional; details: ATCC 6538, 24 h
Attribute measured: MIC

Query: # query: MIC of entry `O=[N+]([O-])c1cc(-c2nnc(SCc3ccccc3Cl)o2)cc([N+](=O)[O-])c1`
Result: > 500 µM

New cases:
Query: # query: MIC of entry `O=[N+]([O-])c1cc(-n2nnnc2SCc2ccc(Cl)c(Cl)c2)cc([N+](=O)[O-])c1`
Result: 62 µM

Query: # query: MIC of entry `O=[N+]([O-])c1cc(-c2nnc(SCc3ccc(Cl)cc3)o2)cc([N+](=O)[O-])c1`
Result: > 500 µM

Query: # query: MIC of entry `O=[N+]([O-])c1cc(-c2nnc(SCc3ccc(Cl)c(Cl)c3)o2)cc([N+](=O)[O-])c1`
Result: > 125 µM

Query: # query: MIC of entry `O=[N+]([O-])c1cc(-n2nnnc2SCc2ccc(Cl)cc2)cc([N+](=O)[O-])c1`
Result: 125 µM
